Hi there, I'd appreciate the recorded pIC50 for every entry that follows.
testSystem: full-length beta-Catenin (Uniprot ID P35222) (Homo sapiens)
Construct: 10 nM full-length beta-Catenin (Uniprot ID P35222)
assayOverview: Fluorescence polarization IC50 (beta-catenin / 5FAM-TCF4 10-53 competition)
Format: binding
experimentalSetup: fluorescence polarization, beta-catenin; read-out: FP EC50
To interpret pIC50, take it as minus log10 of a concentration measured in moles per litre.

Task: Kindly indicate its recorded pIC50. Item: CC(=O)N1CCC[C@]12CC=CCCCC1(CCCC=CCCCOC(=O)N3CC[C@@](C(=O)N[C@@H](Cc4ccccc4Cl)C(=O)N[C@@H](Cc4csc5ccccc45)C(=O)N[C@@H](CCC(N)=O)C(N)=O)(C3)NC(=O)[C@H](CC(N)=O)NC(=O)[C@H](Cc3ccccc3)NC(=O)[C@H](C)NC(=O)[C@H](C)NC(=O)[C@H](CN(CC(=O)O)Cc3c(F)c(F)c(F)c(F)c3F)NC(=O)[C@H](CC(=O)O)NC1=O)NC(=O)[C@H](CC(C)(C)C)NC(=O)[C@H](CC(=O)O)NC2=O (stereo partly drawn) [I-1449]
Output: 7.80

Task: Supply measured pIC50 of CC(=O)N1CCC[C@]12CC=CCCCC1(CCCC=CCCCCCC[C@@](C)(C(=O)N[C@@H](Cc3ccccc3)C(=O)N[C@@H](Cc3c[nH]c4ccccc34)C(=O)N[C@@H](CCC(N)=O)C(N)=O)NC(=O)[C@H](C(C)C)NC(=O)[C@H](Cc3ccccc3)NC(=O)[C@H](C)NC(=O)[C@H](C)NC(=O)[C@H](CCC(N)=O)NC(=O)[C@H](CC(=O)O)NC1=O)NC(=O)[C@H](C)NC(=O)[C@H](CC(=O)O)NC2=O (stereo partly drawn) in your reply.
Output: 5.32

Task: Report pIC50, nothing else, for this molecule: CC(=O)N1CCC[C@]12CC=CCCCC1(CCCC=CCCCOC(=O)N3CC[C@@](C(=O)N[C@@H](Cc4ccccc4Cl)C(=O)N[C@@H](Cc4csc5ccccc45)C(=O)N[C@@H](CCC(N)=O)C(N)=O)(C3)NC(=O)[C@H]([C@@H](C)O)NC(=O)[C@H](Cc3ccccc3)NC(=O)[C@H](C)NC(=O)[C@H](C)NC(=O)[C@H](CN(CC(=O)O)CC(F)(F)F)NC(=O)[C@H](CC(=O)O)NC1=O)NC(=O)[C@H](CC(C)(C)C)NC(=O)[C@H](CC(=O)O)NC2=O (stereo partly drawn)
Output: 7.92

Task: Complete the entry with pIC50 for CC[C@H](C)[C@H](NC(=O)[C@H](CC(=O)O)NC(=O)[C@H](C)NC(C)=O)C(=O)N[C@]1(C)CCN(C)C(=O)OCC=CCCCCC[C@@](C)(C(=O)N[C@@H](Cc2ccccc2)C(=O)N[C@@H](Cc2c[nH]c3ccccc23)C(=O)N[C@@H](Cc2c[nH]cn2)C(N)=O)NC(=O)[C@H](CCC(N)=O)NC(=O)[C@H](Cc2ccccc2)NC(=O)[C@H](C)NC(=O)[C@H](C)NC(=O)[C@H](CC(=O)O)NC(=O)[C@H](CC(=O)O)NC1=O
Output: 5.37

Task: Please indicate pIC50 recorded for CC(=O)N1CCC[C@]12CC=CCCCC1(CCCC=CCCCCCC[C@@](C)(C(=O)N[C@@H](Cc3ccccc3F)C(=O)N[C@@H](Cc3c[nH]c4ccccc34)C(=O)N[C@@H](CCC(N)=O)C(N)=O)NC(=O)[C@H](C(C)C)NC(=O)[C@H](Cc3ccccc3)NC(=O)[C@H](C)NC(=O)[C@H](C)NC(=O)[C@H](CC(=O)O)NC(=O)[C@H](CC(=O)O)NC1=O)NC(=O)[C@H](C)NC(=O)[C@H](CC(=O)O)NC2=O (stereo partly drawn) [I-318]
Output: 5.33

Task: Report measured pIC50; entry is CC(=O)N1CCC[C@]12CC=CCCCC1(CCCC=CCCCCCC[C@@](C)(C(=O)N[C@@H](Cc3ccccc3Cl)C(=O)N[C@@H](Cc3csc4ccccc34)C(=O)N[C@@H](CCO)C(N)=O)NC(=O)[C@H](CO)NC(=O)[C@H](Cc3ccccc3)NC(=O)[C@H](C)NC(=O)[C@H](C)NC(=O)[C@H](CN(CC(=O)O)CC(F)(F)F)NC(=O)[C@H](CC(=O)O)NC1=O)NC(=O)[C@H](CC(C)(C)C)NC(=O)[C@H](CC(=O)O)NC2=O (single isomer, unassigned) [I-999]
Output: 7.59

Task: Indicate its recorded pIC50; the molecule in question is CC(=O)N1CCC[C@]12CC=CCCCC1(CCCC=CCCCCCC[C@@](C)(C(=O)N[C@@H](Cc3ccccc3)C(=O)N[C@@H](Cc3csc4ccccc34)C(=O)N[C@@H](CCC(N)=O)C(N)=O)NC(=O)[C@H](C(C)C)NC(=O)[C@H](Cc3cccc(F)c3F)NC(=O)[C@H](C)NC(=O)[C@H](C)NC(=O)[C@H](CCC(=O)O)NC(=O)[C@H](CC(=O)O)NC1=O)NC(=O)[C@H](C)NC(=O)[C@H](CC(=O)O)NC2=O (stereo partly drawn) [I-391]
Output: 5.72

Task: Supply pIC50 value. Item: CC(=O)N1CCC[C@]12CC=CCCCC1(CCCC=CCCCOC(=O)N3CC[C@@](C(=O)N[C@@H](Cc4ccsc4)C(=O)N[C@@H](Cc4csc5ccccc45)C(=O)N[C@@H](CCC(N)=O)C(N)=O)(C3)NC(=O)[C@H](CC(N)=O)NC(=O)[C@H](Cc3ccccc3)NC(=O)[C@H](C)NC(=O)[C@H](C)NC(=O)[C@H](CC(C)C)NC(=O)[C@H](CC(=O)O)NC1=O)NC(=O)[C@H](CC(C)(C)C)NC(=O)[C@H](CC(=O)O)NC2=O (stereo partly drawn)
Output: 7.46

Task: Please report pIC50 for the following molecule: CC(=O)N1CCC[C@]12CC=CCCCC1(CCCC=CCCCOC(=O)N3CC[C@@](C(=O)N[C@@H](Cc4ccsc4)C(=O)N[C@@H](Cc4csc5ccccc45)C(=O)N[C@@H](CO)C(N)=O)(C3)NC(=O)[C@H](CO)NC(=O)[C@H](Cc3ccccc3)NC(=O)[C@H](C)NC(=O)[C@H](C)NC(=O)[C@H](CN(CC(=O)O)CC(F)(F)F)NC(=O)[C@H](CC(=O)O)NC1=O)NC(=O)[C@H](CC(C)(C)C)NC(=O)[C@H](CC(=O)O)NC2=O (stereo partly drawn) [I-955]
Output: 5.92

====

testSystem: full-length beta-Catenin (Uniprot ID P35222) (Homo sapiens, UniProt P35222)
Construct: 10 nM full-length beta-Catenin (Uniprot ID P35222)
Sequence (P35222 whole entry): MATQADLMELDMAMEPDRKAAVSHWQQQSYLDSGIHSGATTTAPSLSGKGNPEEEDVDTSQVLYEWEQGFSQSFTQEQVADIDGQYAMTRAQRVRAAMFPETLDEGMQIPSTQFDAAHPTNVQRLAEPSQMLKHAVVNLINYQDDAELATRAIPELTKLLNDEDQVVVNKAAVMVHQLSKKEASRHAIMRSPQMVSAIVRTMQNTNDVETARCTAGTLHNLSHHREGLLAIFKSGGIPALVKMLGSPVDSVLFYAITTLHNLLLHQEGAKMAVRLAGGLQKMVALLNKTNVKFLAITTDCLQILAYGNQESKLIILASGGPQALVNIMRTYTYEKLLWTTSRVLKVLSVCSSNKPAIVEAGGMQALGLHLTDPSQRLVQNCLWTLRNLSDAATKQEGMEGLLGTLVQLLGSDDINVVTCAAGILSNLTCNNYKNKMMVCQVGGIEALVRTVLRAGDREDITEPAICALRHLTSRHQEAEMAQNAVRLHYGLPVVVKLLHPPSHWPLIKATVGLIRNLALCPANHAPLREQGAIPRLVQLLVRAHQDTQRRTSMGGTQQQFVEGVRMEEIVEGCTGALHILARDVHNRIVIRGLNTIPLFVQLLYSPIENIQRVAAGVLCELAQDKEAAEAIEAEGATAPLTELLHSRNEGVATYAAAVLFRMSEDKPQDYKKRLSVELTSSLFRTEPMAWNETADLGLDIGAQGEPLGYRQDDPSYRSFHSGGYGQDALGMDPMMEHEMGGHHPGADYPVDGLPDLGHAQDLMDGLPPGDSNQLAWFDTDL
assayOverview: Fluorescence polarization IC50 (beta-catenin / 5FAM-TCF4 10-53 competition)
Assay type: binding
experimentalSetup: fluorescence polarization; read-out: beta-Catenin FP IC50
measuredAttribute: IC50 (nM)
Give just the numeric value; nM need not be written.

Task: Quote IC50 reported for CC(=O)N1CCC[C@]12CC=CCCCC1(CCCC=CCCCOC(=O)N3CC[C@@](C(=O)N[C@@H](Cc4ccccc4Cl)C(=O)N[C@@H](Cc4csc5ccccc45)C(=O)N[C@@H](CC(N)=O)C(=O)N[C@@H](C)C(=O)N[C@@H](C)C(=O)N[C@@H](C)C(N)=O)(C3)NC(=O)[C@H](CC(C)C)NC(=O)[C@H](Cc3ccccc3)NC(=O)[C@H](C)NC(=O)[C@H](C)NC(=O)[C@H](Cc3cccc(C(=O)O)c3)NC(=O)[C@H](CC(=O)O)NC1=O)NC(=O)[C@H](CC(C)(C)C)NC(=O)[C@H](CC(=O)O)NC2=O (some centres unmarked) please.
Output: 24

Task: Write down IC50 measured for item CC(=O)N1CCC[C@]12CC=CCCCC1(CCCC=CCCCOC(=O)N3CC[C@@](C(=O)N[C@@H](Cc4ccsc4)C(=O)N[C@@H](Cc4csc5ccccc45)C(=O)N[C@H](CCC(N)=O)C(N)=O)(C3)NC(=O)[C@H](CC(C)C)NC(=O)[C@H](Cc3ccccc3)NC(=O)[C@H](C)NC(=O)[C@H](C)NC(=O)[C@H](Cc3cccc(C(=O)O)c3)NC(=O)[C@H](CC(=O)O)NC1=O)NC(=O)[C@H](CC(C)(C)C)NC(=O)[C@H](CC(=O)O)NC2=O (some centres unmarked)
Output: 10

Task: Entry CC(=O)N1CCC[C@]12CC=CCCCC1(CCCC=CCCCOC(=O)N3CC[C@@](C(=O)N[C@@H](Cc4ccc(C#N)cc4)C(=O)N[C@@H](Cc4csc5ccccc45)C(=O)N[C@@H](CCC(N)=O)C(N)=O)(C3)NC(=O)[C@H](CC(C)C)NC(=O)[C@H](Cc3ccccc3)NC(=O)[C@H](C)NC(=O)[C@H](C)NC(=O)[C@H](CC(=O)O)NC(=O)[C@H](CC(=O)O)NC1=O)NC(=O)[C@H](CC(C)(C)C)NC(=O)[C@H](CC(=O)O)NC2=O (some centres unmarked) needs its IC50 filled in; supply it.
Output: 987

Task: Give the reported value of IC50 for this record: CC(=O)N1CCC[C@]12CC=CCCCC1(CCCC=CCCCCCC[C@@](C)(C(=O)N[C@@H](Cc3ccccc3)C(=O)N[C@@H](Cc3csc4ccccc34)C(=O)N[C@@H](Cc3c[nH]cn3)C(N)=O)NC(=O)[C@H](CC(N)=O)NC(=O)[C@H](Cc3ccccc3)NC(=O)[C@H](C)NC(=O)[C@H](C)NC(=O)[C@H](CC(=O)O)NC(=O)[C@H](CC(=O)O)NC1=O)NC(=O)[C@H](C)NC(=O)[C@H](CC(=O)O)NC2=O (some centres unmarked) [I-466]
Output: 19

Task: Could you please provide reported IC50 for CC(=O)N1CCC[C@]12CC=CCCCC1(CCCC=CCCCOC(=O)N3CC[C@@](C(=O)N[C@@H](Cc4ccsc4)C(=O)N[C@@H](Cc4csc5ccccc45)C(=O)N[C@H](C(N)=O)[C@@H](C)O)(C3)NC(=O)[C@H](CC(C)C)NC(=O)[C@H](Cc3ccccc3)NC(=O)[C@H](C)NC(=O)[C@H](C)NC(=O)[C@H](CN(CC(=O)O)CC(F)(F)F)NC(=O)[C@H](CC(=O)O)NC1=O)NC(=O)[C@H](CC(C)(C)C)NC(=O)[C@H](CC(=O)O)NC2=O (some centres unmarked) ? Thanks!
Output: 24
